target: T1, AFP158/HLA-A*02:01 complex (human); experiment: SPR, crude scFv captured, pMHC analyte;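 further: pMHC analyte injected at three concentrations, association phase of one hundred seconds, then running buffer for dissociation, rates fitted from both curves, KD derived from the rates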
T1 construct: flowed as analyte in SPR
// values below are reported koff
The answer is to be given in s⁻¹; state only the numeric part.

Observe how each entry below is paired with its result.
>>> readout_number("AS170036 VL1VH1-98I108D (scFv, also called 35-AS170036 VL1VH1-98I108D) scFv: QSALTQPRSVSGSPGQSVTISCAGTSSDVGSENYVSWYQQHPGKAPKLMIYQVNKRASGVPDRFSGSKSGNTASLTISGLQAEDEADYYCASYRSSDINIVFGGGTKLTVLGGGGSGGGGSGGGGSEVQLVESGGGLVQPGGSLRLSCAASGFTFSSYAMSWVRQAPGKGLEWVSTINSGTGSPYYADSVKGRFTISRDNSKNTLYLQMNSLRAEDTAVYYCAKNFFDGSWFLDPPAMDYWGQGTLVTVSSHHHHHH")
0.0053
>>> readout_number("AS170036 VL1VH1-57K98F (scFv, also called 10-AS170036 VL1VH1-57K98F) scFv: QSALTQPRSVSGSPGQSVTISCAGTSSDVGSENYVSWYQQHPGKAPKLMIYQVNKRASGVPDRFSGSKSGNTASLTISGLQAEDEADYYCASYRSSDFNIVFGGGTKLTVLGGGGSGGGGSGGGGSEVQLVESGGGLVQPGGSLRLSCAASGFTFSSYAMSWVRQAPGKGLEWVSTINSGTGKPYYADSVKGRFTISRDNSKNTLYLQMNSLRAEDTAVYYCAKNFFDGSWFLGPPAMDYWGQGTLVTVSSHHHHHH")
0.004

Value of measured koff for the entry AS170036 VL1VH1-56Y98I (scFv, also called 02-AS170036 VL1VH1-56Y98I) scFv: QSALTQPRSVSGSPGQSVTISCAGTSSDVGSENYVSWYQQHPGKAPKLMIYQVNKRASGVPDRFSGSKSGNTASLTISGLQAEDEADYYCASYRSSDINIVFGGGTKLTVLGGGGSGGGGSGGGGSEVQLVESGGGLVQPGGSLRLSCAASGFTFSSYAMSWVRQAPGKGLEWVSTINSGTYSPYYADSVKGRFTISRDNSKNTLYLQMNSLRAEDTAVYYCAKNFFDGSWFLGPPAMDYWGQGTLVTVSSHHHHHH : 0.0014

Value of measured koff for the entry AS170036 VL1VH1-57K108S (scFv, also called 27-AS170036 VL1VH1-57K108S) scFv: QSALTQPRSVSGSPGQSVTISCAGTSSDVGSENYVSWYQQHPGKAPKLMIYQVNKRASGVPDRFSGSKSGNTASLTISGLQAEDEADYYCASYRSSDHNIVFGGGTKLTVLGGGGSGGGGSGGGGSEVQLVESGGGLVQPGGSLRLSCAASGFTFSSYAMSWVRQAPGKGLEWVSTINSGTGKPYYADSVKGRFTISRDNSKNTLYLQMNSLRAEDTAVYYCAKNFFDGSWFLSPPAMDYWGQGTLVTVSSHHHHHH : 0.0026
